# Test system: MRSA (NRS70, NRS119)
# protocol.description: MIC against MRSA strains
# Assay type: cell-based, Staphylococcus aureus
# recorded.conditions: Staphylococcus aureus, NRS70 strain; Table 2 (SAR^1); read-out: MIC MRSA
parameter: MIC

| chemical.string | MIC |
| --- | --- |
| O=C(Nc1ccon1)c1ccnc(-c2ccc(Cl)c(Cl)c2)c1 | ≥ 256 µg/mL |

## Input State its MIC: "Cc1nnc(NC(=O)c2ccnc(-c3ccc(Cl)c(Cl)c3)c2)o1"
## Output ≥ 256 µg/mL

## Input State its MIC: "O=C(Nc1ncc[nH]1)c1ccnc(-c2ccc(Cl)c(Cl)c2)c1"
## Output ≥ 256 µg/mL

## Input State its MIC: "CNC(=O)c1ccnc(-c2ccc(Cl)c(Cl)c2)c1"
## Output ≥ 256 µg/mL

## Input State its MIC: "O=C(Nc1nccs1)c1ccnc(-c2ccc(Cl)c(Cl)c2)c1"
## Output ≥ 256 µg/mL

## Input State its MIC: "CCOC(=O)c1coc(NC(=O)c2ccnc(-c3ccc(Cl)c(Cl)c3)c2)n1"
## Output 1 µg/mL

## Input State its MIC: "Cc1coc(NC(=O)c2ccnc(-c3ccc(Cl)c(Cl)c3)c2)n1"
## Output 0.06 µg/mL

## Input State its MIC: "CCOC(=O)c1cnc(NC(=O)c2ccnc(-c3ccc(Cl)c(Cl)c3)c2)o1"
## Output 0.06 µg/mL
